target: FPR1 (Homo sapiens); assay: Change in calcium activity by peptide, FPR1 activation effect; settings: calcium activity (Fura-2), graded per Table 3, read-out: EC50 for [Ca^2+] FPR1
Sequence (P21462 whole entry, species assumed): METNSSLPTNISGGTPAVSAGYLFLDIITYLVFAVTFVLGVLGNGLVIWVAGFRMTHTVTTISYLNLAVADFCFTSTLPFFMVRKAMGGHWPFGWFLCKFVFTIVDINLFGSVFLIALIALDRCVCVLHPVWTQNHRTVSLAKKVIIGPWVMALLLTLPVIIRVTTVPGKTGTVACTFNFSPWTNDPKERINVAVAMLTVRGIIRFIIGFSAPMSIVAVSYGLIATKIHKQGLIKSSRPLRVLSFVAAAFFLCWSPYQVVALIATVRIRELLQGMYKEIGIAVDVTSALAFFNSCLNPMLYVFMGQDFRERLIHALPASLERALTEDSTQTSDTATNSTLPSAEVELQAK
Peptide text beside a SMILES is read from it.
value.type: EC50

Some compounds with known EC50 results, for comparison:
{"columns": ["compound", "EC50"],
 "data": [
  ["CSCC[C@H](N)C(=O)N[C@@H](CCCNC(=N)N)C(=O)N[C@@H](Cc1ccc(O)cc1)C(=O)N[C@@H](CCCCN)C(=O)N[C@@H](Cc1ccc(O)cc1)C(=O)N[C@H](CCSC)C(N)=O [Peptide 41] (HELM PEPTIDE1{M.R.Y.K.Y.[dM].[am]}$$$$V2.0)", "> 10 µM"],
  ["CSCC[C@@H](NC(=O)[C@H](Cc1ccc(O)cc1)NC(=O)[C@H](CCCCN)NC(=O)[C@H](Cc1ccc(O)cc1)NC(=O)[C@H](CCCNC(=N)N)NC(=O)[C@H](Cc1c[nH]c2ccccc12)NC(=O)[C@H](CCCNC(=N)N)NC(C)=O)C(N)=O [Peptide 33] (HELM PEPTIDE1{[ac].R.W.R.Y.K.Y.[dM].[am]}$$$$V2.0)", "> 10 µM"]
]}

Okay, next one:
Given the compound CCCCCCCC(=O)N1CCC[C@H]1C(=O)N[C@@H](CCSC)C(=O)N[C@@H](CCCCN)C(=O)N[C@@H](Cc1ccc(O)cc1)C(=O)N[C@@H](CCCCN)C(=O)N[C@H](C(=O)N[C@H](CCSC)C(N)=O)C(C)C [Peptide 28] (HELM PEPTIDE1{[CCCCCCCC(=O)[*:2]].P.M.K.Y.K.V.[dM].[am]}$$$$V2.0) , what is its reported EC50?
> 10 µM
